src = the supplement of paper PMC13380429

Quick reference: cell viability of the listed items.
# Tested on: U2OS
# experimental details: cell viability relative to DMSO; higher = less toxic
# condition summary: 72 h; 10000 nM
measured endpoint: cell viability (%)

• CCn1nc(C(=O)O)c(=O)c2cc3c(cc21)OCO3 = 99.5
• C[N+](C)(C)CCCCCNCC12CC3CC(CC(C3)C1)C2 = 95.7
• CC(C)C[C@H](NC(=O)[C@H](CCc1ccccc1)NC(=O)CN1CCOCC1)C(=O)N[C@@H](Cc1ccccc1)C(=O)N[C@@H](CC(C)C)C(=O)[C@@]1(C)CO1 = -0.3
• O=C(NC1CCN(CCc2c[nH]c3ccccc23)CC1)c1ccccc1 = 100

----------
Quick reference: cell viability of the listed items.
# Test system: U2OS
# experimental details: cell viability relative to DMSO; higher = less toxic
# condition summary: 72 h; 1000 nM
measured endpoint: cell viability (%)

* Nc1nc(=O)c2c([nH]1)NCC(CNc1ccc(C(=O)N[C@@H](CCC(=O)O)C(=O)O)cc1)N2C=O (some centres not stated) | 95.6
* Cc1nc(N)sc1-c1ccnc(Nc2ccc(N3CCOCC3)cc2)n1 | 89.6
* COc1cc2nccc(Oc3ccc(NC(=O)C4(C(=O)Nc5ccc(F)cc5)CC4)cc3)c2cc1OC [cabozantinib] | 98.3
* O=C1c2cccnc2OC[C@@H]2CCCN12 | 97.7
* COc1cc2nccc(Oc3ccc(NC(=O)Nc4ccc(F)cc4F)c(F)c3)c2cc1OC | 99.2
* Cc1cc(NC(=O)C(c2ccccc2)N2CCCc3ccccc32)no1 (configuration not stated) | 101
* O=c1[nH]c2ccccc2n1CCCN1CCC(n2c(=O)[nH]c3cc(Cl)ccc32)CC1 | 95.6
* COc1cc2c(cc1OC(C)C)[C@H](c1ccc(Cl)cc1)N(c1ccc(N(C)C[C@H]3CC[C@H](N4CCN(C)C(=O)C4)CC3)cc1)C(=O)C2 | 94.6
* COCCOCCOc1ccc(C2=N[C@@](C)(C(=O)O)CS2)c(O)c1 | 98.5
* O=C(NCc1ccccc1)OCCO [buramate] | 100
* CCOC(=O)CCC(=O)O[C@H]1[C@H](O[C@@H]2[C@@H](C)[C@H](O[C@H]3C[C@@](C)(OC)[C@@H](O)[C@H](C)O3)[C@@H](C)C(=O)O[C@H](CC)[C@@](C)(O)[C@H](O)[C@@H](C)C(=O)[C@H](C)C[C@@]2(C)O)O[C@H](C)C[C@@H]1N(C)C [erythromycin-ethylsuccinate] | 106
* CN(C)C(=O)c1cc2cnc(Nc3ccc(N4CCNCC4)cn3)nc2n1C1CCCC1 | 98.4
* NS(=O)(=O)NCCNc1nonc1/C(=N/O)Nc1ccc(F)c(Br)c1 | 102
* CCCCCCCCCCCCC/C=C/[C@@H](O)[C@@H](N)CO[P@](=O)(O)OCC[N+](C)(C)C | 95.7
* CN1CCN(c2cc(-c3ccccc3)nc(N)n2)CC1 | 98
* CN(C)CC/C=C1/c2ccccc2COc2ccccc21 [doxepin] | 102
* C[C@]12CC[C@@H]3c4ccc(OS(=O)(=O)O)cc4CC[C@H]3[C@@H]1CCC2=O [estropipate] | 98

----------
Quick reference: cell viability of the listed items.
# System: Calu-3
# experimental details: cell viability relative to DMSO; higher = less toxic
# condition summary: 72 h; 10000 nM
measured endpoint: cell viability (%)

- CCN1CCC[C@H]1CNC(=O)c1c(OC)ccc(Br)c1OC [remoxipride]: 79.9
- CCn1nc(C(=O)O)c(=O)c2cc3c(cc21)OCO3: 98.7
- CNS(=O)(=O)Nc1nccc(Cc2c(C)c3ccc(Oc4ncccn4)cc3oc2=O)c1F: 40.8
- O=C(Nc1ccccc1)c1ccccc1O [salicylanilide]: 111
- O=C1c2cccc3c2[C@H](CCC3)CN1[C@@H]1CN2CCC1CC2: 98.8
- OCCN1C[C@H](O)[C@@H](O)[C@H](O)[C@H]1CO: 96.2
- Oc1ccc2[nH]cc(C3=CCNCC3)c2n1: 102
- Cc1cccc(CN2CCN(C(c3ccccc3)c3ccc(Cl)cc3)CC2)c1 (stereo not given): 87.6
- CCOC(=O)c1ncc2[nH]c3ccc(OCc4ccccc4)cc3c2c1COC: 70.9
- NS(=O)(=O)c1cc(C(=O)O)c(NCc2ccco2)cc1Cl [furosemide]: 104
